Recorded below: IC50, system PAK1 (Homo sapiens, UniProt Q13153).

Below, each entry is followed by its recorded IC50 result.
CNc1ncc2c(n1)N1CCN=C1C(c1ccc(-c3cncc(C)n3)cc1Cl)=C2 [Compound 25]	0.1 to 10 µM
Clc1ccccc1C1=Cc2cnc(Nc3ccc(N4CCOCC4)cc3)nc2N2CCN=C12 [Compound 89]	0.1 to 10 µM

Query: Form entry - test system: PAK1 (Homo sapiens, UniProt Q13153); read-out: IC50; compound: CCN1CCN(c2ccc(Nc3ncc4c(n3)N3CCN=C3C(c3ccc(Cl)cc3Cl)=C4)cc2F)CC1 [Compound 3]
Sequence (Q13153 whole entry): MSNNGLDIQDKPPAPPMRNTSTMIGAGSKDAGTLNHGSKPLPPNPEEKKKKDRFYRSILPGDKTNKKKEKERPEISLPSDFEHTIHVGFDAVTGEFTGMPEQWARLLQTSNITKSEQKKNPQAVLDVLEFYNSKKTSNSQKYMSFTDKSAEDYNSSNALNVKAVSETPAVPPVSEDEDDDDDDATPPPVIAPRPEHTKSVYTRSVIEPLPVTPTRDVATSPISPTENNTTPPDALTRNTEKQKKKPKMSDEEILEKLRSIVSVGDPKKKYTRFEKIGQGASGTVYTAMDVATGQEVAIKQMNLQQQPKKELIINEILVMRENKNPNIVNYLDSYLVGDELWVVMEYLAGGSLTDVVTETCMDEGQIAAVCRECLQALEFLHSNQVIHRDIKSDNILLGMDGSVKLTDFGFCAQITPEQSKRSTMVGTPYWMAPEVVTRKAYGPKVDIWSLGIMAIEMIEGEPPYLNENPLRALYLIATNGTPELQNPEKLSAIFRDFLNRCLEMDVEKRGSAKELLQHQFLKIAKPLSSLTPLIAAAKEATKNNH
Result: 0.1 to 10 µM

###

Biological target: PAK1 (Homo sapiens, UniProt Q13153)
ASSAY ENDPOINT: IC50

Some solved cases for reference:
Fc1cc(N2CCNCC2)ccc1Nc1ncc2c(n1)N1CCCN=C1C(c1ccc(Cl)cc1Cl)=C2	> 10 µM
Cc1ccc(Nc2ncc3c(n2)N2CCN=C2C(c2ccccc2Cl)=C3)cc1F	> 10 µM
CNc1ncc2c(n1)N1CCCN=C1C(c1ccc(N3CCN(C)C3=O)cc1Cl)=C2	> 10 µM
Fc1cc(N2CCNCC2)ccc1Nc1ncc2c(n1)N1CCN=C1C(c1cscn1)=C2	0.1 to 10 µM
Clc1ccccc1C1=Cc2cnc(NC3COC3)nc2N2CCN=C12	> 10 µM

Query: GET /values?readout=IC50&system=PAK1 (Homo sapiens, UniProt Q13153)&item= OCc1cccc(Nc2ncc3c(n2)N2CCN=C2C(c2ccccc2Cl)=C3)c1
Result: 0.1 to 10 µM

Query: API: value(readout= IC50, system= PAK1 (Homo sapiens, UniProt Q13153), query= Clc1ccc(C2=Cc3cnc(NC4CCOCC4)nc3N3CCN=C23)c(Cl)c1 )
Result: > 10 µM

Query: Lab request: please report IC50 under test system PAK1 (Homo sapiens, UniProt Q13153) for COc1nc(N2CCNCC2)ccc1Nc1ncc2c(n1)N1CCN=C1C(c1ccccc1)=C2
Result: > 10 µM

Query: State its IC50 on PAK1 (Homo sapiens, UniProt Q13153): COc1ccccc1C1=Cc2cnc(Nc3ccc(N4CCNCC4)cc3F)nc2N2CCN=C12
Result: > 10 µM

Query: // fetch PAK1 (Homo sapiens, UniProt Q13153) IC50 for CN1CCN(CCNc2ncc3c(n2)N2CCN=C2C(c2c(Cl)cccc2Cl)=C3)CC1
Result: > 10 µM

###

This document collects pIC50 values reported for PAK1 (Homo sapiens).
pIC50: −log10 of the molar value.

Fc1cc(Nc2ncc3c(n2)N2CCCN=C2C(c2ccc(Cl)cc2Cl)=C3)ccc1N1CCNCC1	5.00 to 7.00
Fc1ccccc1Nc1ncc2c(n1)N1CCCN=C1C(c1cccc3[nH]ccc13)=C2	< 5.00
CNc1ncc2c(n1)N1CCN=C1C(c1ccc(N3CCN(C)C3=O)cc1Cl)=C2	5.00 to 7.00
Fc1cc(Nc2ncc3c(n2)N2CCN=C2C(c2ccccc2Cl)=C3)ccc1N1CCNCC1	5.00 to 7.00

Query: Item: COc1nc(N2CCNCC2)ccc1Nc1ncc2c(n1)N1CCN=C1C(c1ccc(-n3ccnc(C)c3=O)cc1)=C2 Test system: PAK1 (Homo sapiens) Read-out: pIC50 Value: ?
Result: < 5.00

Query: Form: Entry = COc1nc(N2CCNCC2)ccc1Nc1ncc2c(n1)N1CCN=C1C(c1ccccn1)=C2 | System = PAK1 (Homo sapiens) | pIC50 = ____
Result: < 5.00
